Here, each record is paired with measured IC50 data.
- Test system: MYB mRNA
- test: Splicing RT-qPCR assay, MYB canonical (CJ) and alternative (AJ) junction mRNA
- Format: cell-based, human
- recordedConditions: Homo sapiens; canonical junction mRNA, RT-qPCR, A673 or K562 cells, 24 hours treatment; read-out: MYB CJ (IC50, decrease in CJ mRNA)

A selection of reference data follows.
INSERT INTO results (molecule, experimentalresult) VALUES
  ('CCN[C@H]1CCN(c2cnc3nc(-c4cc5cn(C)nc5c(C)c4O)ccc3c2)C1 [Compound 123]', '< 100 nM'),
  ('Cc1c(O)c(-c2cc(-c3ccccn3)c3cc(N4C[C@@H](C)N[C@@H](C)C4)cnc3n2)cc2cn(C)nc12 [Compound 217]', '> 10000 nM'),
  ('CN[C@H]1CN(c2cnc3nc(-c4cc5cn(C)nc5c(C)c4O)ccc3c2)C[C@@H]1C [Compound 127]', '< 100 nM');

Prompt: Answer with the recorded IC50 for the molecule listed here: CNC1CCN(c2cnc3nc(-c4cc5cn(C)nc5c(C)c4O)nc(OC)c3c2)C1 (centres unmarked) [Compound 161]
Response: < 100 nM

Prompt: Answer with the recorded IC50 for the molecule listed here: CNC(=O)c1cc(-c2cc3cn(C)nc3c(C)c2O)nc2ncc(N3CCNCC3)cc12 [Compound 150]
Response: > 10000 nM

Prompt: Answer with the recorded IC50 for the molecule listed here: COc1nc(-c2cc3cn(C)nc3c(C)c2O)nc2ncc(N3C[C@@H](C)N[C@@H](C)C3)cc12 [Compound 369]
Response: 100 to 1000 nM

Prompt: Answer with the recorded IC50 for the molecule listed here: Cc1c(O)c(-c2ccc3c(C(F)(F)F)c(N4CCNCC4)cnc3n2)cc2cn(C)nc12 [Compound 302]
Response: 100 to 1000 nM

Prompt: Answer with the recorded IC50 for the molecule listed here: CN1CCC[C@H]2CN(c3cnc4nc(-c5cc6cn(C)nc6cc5O)cc(Cl)c4c3)C[C@H]21 [Compound 372]
Response: 100 to 1000 nM

====

- Tested on: HTT mRNA
- test: Splicing RT-qPCR assay, HTT canonical (CJ) and alternative (AJ) junction mRNA
- Assay type: cell-based, human
- recordedConditions: Homo sapiens, canonical junction mRNA, qPCR panel; read-out: HTT CJ (decrease in CJ mRNA levels, IC50)
quantityMeasured: IC50

A selection of reference data follows.
INSERT INTO results (compound, experimentalresult) VALUES
  ('Cc1c(O)c(-c2ccc3cc(N4CC[C@@H](NCC5CC5)C4)cnc3n2)cc2cn(C)nc12 [Compound 118]', '< 100 nM'),
  ('Cc1cn2cc(-c3cc(Cl)c4cc(N5C[C@@H](C)NC6(CC6)C5)cnc4n3)cc(F)c2n1 [Compound 402]', '> 10000 nM'),
  ('CN1CCC[C@H]2CN(c3cnc4nc(-c5cc6cn(C)nc6cc5O)cc(Cl)c4c3)C[C@H]21 [Compound 372]', '> 10000 nM');

Prompt: For HTT mRNA, give IC50 of the listed compound: Cc1c(O)c(-c2cc(C3CC3)c3cc(N4CCNCC4)cnc3n2)cc2cn(C)nc12 [Compound 144, bis(2,2,2-trifluoroacetate)]
Response: 100 to 1000 nM

Prompt: For HTT mRNA, give IC50 of the listed compound: Cc1c(N2C[C@H](C)N[C@@H](C)C2)cnc2nc(-c3cc4cn(C)nc4c(C)c3O)ccc12 [Compound 395]
Response: 100 to 1000 nM

Prompt: For HTT mRNA, give IC50 of the listed compound: CCN[C@@H]1CCN(c2cnc3nc(-c4cc5cn(C)nc5c(C)c4O)ccc3c2)C1 [Compound 124]
Response: < 100 nM

Prompt: For HTT mRNA, give IC50 of the listed compound: Cn1cc2cc(-c3ccc4cc(NC5CCNCC5)cnc4n3)c(O)c(F)c2n1 [Compound 285]
Response: 100 to 1000 nM

Prompt: For HTT mRNA, give IC50 of the listed compound: Cc1c(O)c(-c2cc(-c3nnc[nH]3)c3cc(N4C[C@@H](C)N[C@@H](C)C4)cnc3n2)cc2cn(C)nc12 [Compound 261]
Response: < 100 nM

Prompt: For HTT mRNA, give IC50 of the listed compound: Cc1cn2cc(-c3cc(Cl)c4cc(N5CCNCC5)cnc4n3)cc(F)c2n1 [Compound 153]
Response: 100 to 1000 nM

Prompt: For HTT mRNA, give IC50 of the listed compound: CNC1CCN(c2cnc3nc(-c4cc5cn(C)nc5c(C)c4O)ccc3n2)C1 (stereo not shown) [Compound 192]
Response: 100 to 1000 nM

Prompt: For HTT mRNA, give IC50 of the listed compound: Cc1cn2nc(-c3cc(Cl)c4cc(N5C[C@@H](C)N[C@@H](C)C5)cnc4n3)cc(C)c2n1 [Compound 335]
Response: 100 to 1000 nM

Prompt: For HTT mRNA, give IC50 of the listed compound: Cc1cn2nc(-c3cc(Cl)c4cc(N5CCNC6(CC6)C5)cnc4n3)cc(C)c2n1 [Compound 383]
Response: 1000 to 10000 nM

Prompt: For HTT mRNA, give IC50 of the listed compound: CN[C@H]1CCN(c2cnc3nc(-c4cc5cn(C)nc5c(C)c4O)nc(OC)c3c2)C1 [Compound 212]
Response: < 100 nM

Prompt: For HTT mRNA, give IC50 of the listed compound: CN[C@@H]1CCN(c2cnc3nc(-c4cc5cn(C)nc5c(C)c4O)ccc3c2)C1 [Compound 112]
Response: < 100 nM

Prompt: For HTT mRNA, give IC50 of the listed compound: Cn1cc2cc(-c3cc(Cl)c4cc(N5CCNCC5)cnc4n3)c(O)c(F)c2n1 [Compound 155]
Response: < 100 nM

Prompt: For HTT mRNA, give IC50 of the listed compound: CN(c1cnc2nc(-c3cc4cn(C)nc4c(F)c3O)ccc2c1)C1CCNCC1 [Compound 284]
Response: 1000 to 10000 nM

====

- Test system: K562 cells
- test: Cell viability, Cell Titer Glo 2.0 assay, K562
- recordedConditions: 72 hours
quantityMeasured: Effect on Cell Viability, K562

INSERT INTO measurements (compound, experimentalresult) VALUES
  ('Cn1cc2cc(-c3ccc4cc(N5CC[C@@H](NCC6CC6)C5)cnc4n3)c(O)c(F)c2n1', 'A (<100 nM)'),
  ('C[C@@H]1CN(c2cnc3nc(-c4cc(F)c5nn(C)cc5c4)ccc3c2Cl)C[C@H](C)N1', 'B (100-1000 nM)'),
  ('C[C@@H]1CN(c2cnc3nc(-c4cc5cn(C)nc5c(F)c4O)cc(Cl)c3c2)C[C@H](C)N1', 'A (<100 nM)'),
  ('C[C@@H]1CN(c2cnc3nc(-c4cc5cn(C)nc5cc4O)cc(Cl)c3c2)C[C@H](C)N1', 'B (100-1000 nM)'),
  ('CN[C@H]1CCN(c2cnc3nc(-c4cc5cn(C)nc5c(F)c4O)cc(Cl)c3c2)C1', 'A (<100 nM)');

Prompt: Answer with the recorded Effect on Cell Viability, K562 for the compound listed here: "C[C@@H]1CN(c2cnc3nc(-c4cc5cn(C)nc5c(F)c4O)cc(C4CC4)c3c2)C[C@H](C)N1"
Response: C (1000-9999 nM)

====

- System: K562 cells
- test: Cell viability, Cell Titer Glo 2.0 assay, K562
- recordedConditions: 72 hours
quantityMeasured: Effect on Cell Viability, K562

INSERT INTO measurements (smilesstring, quantitymeasured, experimentalresult) VALUES
  ('C[C@@H]1CN(c2cnc3nc(-c4cc(F)c5nn(C)cc5c4)cc(Cl)c3c2)CCN1', 'Effect on Cell Viability, K562', 'B (100-1000 nM)'),
  ('Cc1c(O)c(-c2ccc3nc(N4CCC(N(C)C)CC4)cnc3n2)cc2cn(C)nc12', 'Effect on Cell Viability, K562', 'B (100-1000 nM)');

====

- System: MYB mRNA
- test: Splicing RT-qPCR assay, MYB canonical (CJ) and alternative (AJ) junction mRNA
- Format: cell-based, human
- recordedConditions: Homo sapiens; canonical junction mRNA, RT-qPCR, A673 or K562 cells, 24 hours treatment; read-out: MYB CJ (IC50, decrease in CJ mRNA)
Here, each record is paired with measured IC50 data.

INSERT INTO measurements (compound, quantitymeasured, experimentalresult) VALUES
  ('Cn1cc2cc(-c3cnc4nc(N5CCC(NC(C)(C)C)C5)ccc4c3)c(O)cc2n1 (centres unmarked)', 'IC50', '> 10000 nM'),
  ('CCNC1CCN(c2cnc3nc(-c4cc5cn(C)nc5c(C)c4O)ccc3c2)C1 (centres unmarked)', 'IC50', '< 100 nM');

Prompt: Answer with the recorded IC50 for the compound listed here: "CN[C@@H]1CN(c2cnc3nc(-c4cc5cn(C)nc5c(C)c4O)ccc3c2)C[C@@H]1F"
Response: 100 to 1000 nM
